Where do the numbers come from? From the Human Domainome abundance scans (Beltran et al. 2025).

B1: Intersectin-1, residues 909 to 971; numbered along this chain, Q15811 (parent)
chain: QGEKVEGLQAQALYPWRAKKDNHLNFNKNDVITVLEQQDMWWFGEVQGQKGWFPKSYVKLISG

variants of: B1; assay: abundance fitness (aPCA) (normalised: wild type 0, dead -1); higher = more abundant; growth selection in yeast, the domain comes from the species named; conditions: Homo sapiens
measured_quantity: abundance fitness
Could you keep your reply to the number by itself?

- change: "R17G"
  abundance fitness: -0.306
- change: "Q47P"
  abundance fitness: -0.293
- change: "E6K"
  abundance fitness: -0.306

Consider the record given below.
Item: Q37S | abundance fitness: -0.294
